tgt: T1, N-terminal ECD protein of mouse FGFR3 with a terminal avidin tag (mouse, UniProt Q61851 21-369)
T1 construct: extracellular domain; not shown: terminal avidin tag
T1 sequence (looked up): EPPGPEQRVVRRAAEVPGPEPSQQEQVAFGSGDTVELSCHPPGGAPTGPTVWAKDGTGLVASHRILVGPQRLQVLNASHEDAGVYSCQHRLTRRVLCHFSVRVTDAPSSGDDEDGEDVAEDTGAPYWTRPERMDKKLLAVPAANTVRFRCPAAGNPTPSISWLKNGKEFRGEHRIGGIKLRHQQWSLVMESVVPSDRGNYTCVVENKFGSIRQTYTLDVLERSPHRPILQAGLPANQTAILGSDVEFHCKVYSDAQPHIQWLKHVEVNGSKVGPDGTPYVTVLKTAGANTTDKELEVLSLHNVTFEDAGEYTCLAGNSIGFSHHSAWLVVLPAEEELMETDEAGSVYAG
assayComment: SPR (Biacore), FGFR3 ECD immobilised on chip, antibody injected, 1:1 fit
# koff listing for each entry below

binder | koff, s⁻¹
KE94 (antibody, V domains shown, Mouse monoclonal antibody from a hybridoma; also called anti-FGFR3 antibody KE94) VH: QVQLQQSGAELVRPGASVTLSCKASGSTFTDFEIHWVKQTPVHGLEWIGAIDPETGGTAYNQKFKGKAILTAVKSSSTAYMGLRSLTSEDSAVYYCTRNYDGYSRTMDYWGQGTSVTVSS VL: NIMMTQSPSSLAVSAGEKVTMSCKSSQSVLYSSNQKNYLAWYQQKPGQSPKLLIYWASTRESGVPDRFTGSGSGTDFSLSISSVQTEDLAVYYCHQYLSSYTFGGGTRLEMK | 0.00148
KC18 (antibody, V domains shown, Mouse monoclonal antibody from a hybridoma; also called anti-FGFR3 antibody KC18; KC18 mouse antibody) VH: QVQLQQSGAELVRPGASVTLSCKASGDTFTDFEIHWVKQTPVHGLEWIGDIDPETGGTAYNQKFRGRAMLTADRSSSTAYMELRSLTSEDSAVYYCTRTYDGYPYAMDYWGQGTSVTVSS VL: DIVMSQSPSSLAVSVGEKVTMSCKSSQSLLYSNNQKNYLAWYQQKPGQSPKLLIYWASTRESGVPDRFTGSGSGTDFTLTISSVKAEDLAVYYCQQYYSYRTFGGGTKLEIK | 0.0011
KE63 (antibody, V domains shown, Mouse monoclonal antibody from a hybridoma; also called anti-FGFR3 antibody KE63) VH: QVQLQQSGAELVRPGASVTLSCKASGSTFSDFEIHWVKQTPVHGLEWIGGIDPETGGTAYNQKFKGKAILTADRSSSTAYMELRSLTSEDSAVYYCTRNYDGYSQTMDYWGQGTSVTVSS VL: NIMMTQSPSSLAVSAGEKVTMSCKSSQSVLYSSNQKNYLAWYQQKPGQSPKLLIYWASTRESGVPDRFTGSGSGTDFTLTISSVQAEDLAVYYCHQYLSSYTFGGGTKLEMK | 0.00291
KE35 (antibody, V domains shown, Mouse monoclonal antibody from a hybridoma; also called anti-FGFR3 antibody KE35) VH: EVQLQQSGPELVKPGASVKMSCKASGYTFTDYNMHWVKQSHGKSLEWIGYINPNNGGTRYNQKFKGKATLTVNKSSSTAYMELRSLTSEDSAVYYCARERDYDGAMDYWGQGTSVTVSS VL: DIQMTQSPSSLSASLGGKVTITCKASQDINKFIAWYQHKPGKGPRLLIHYTSTLQPGIPSRFSGSGSGRDYSFSISNLEPEDIATYYCLQYDNLLWTFGGGTKLEIK | 0.00108
KE42 (antibody, V domains shown, Mouse monoclonal antibody from a hybridoma; also called anti-FGFR3 antibody KE42) VH: EVQLQQSGPELVKPGASVKMSCKASGYTFTDYNMHWVKQSHGKSLQWIGYINPNNGGTNYNQNFKDKATLTVNKSSTTAYMELRSLTSEDSAVYYCARERDYDGSMDFWGQGTSVTVSS VL: DIQMTQSPSSLSASLGGKVTITCKASQDINKFIAWYQHKPGKGPRLLIHYTSTLQPGIPSRFSGSGSGRDYSFSISNLEPEDIATYFCLQYDNLLWTFGGGTKLEIK | 0.0006
KE58 (antibody, V domains shown, Mouse monoclonal antibody from a hybridoma; also called anti-FGFR3 antibody KE58) VH: EVQLQQSGPDLVKPGASVKISCKASGYTVTDYYMNWVKQSHGKSLEWIGDINPNNGVTTYNQKFKDKATLTVDKSSSTAYMELRSLTSEDSAVYYCAREEDFDGFDYWGQGTTLTVSS VL: DIVMTQSHKFMSTSVGDRVSITCKASQDVSTGVAWYQQKPGQSPQLLIYWASTRHTGVPDRFTGSGSGTDYILTIRSVQAEDLALYYCQQHYSTPLTFGAGTKLELK | 0.000918
